Source listed as ChEMBL document CHEMBL1275528.

Please respond with reported MIC for every item in the list.
procedure_text: Antimicrobial activity against Salmonella serovar Typhimurium SL1344 by broth dilution method in presence of chlorpromazine
Type: functional
experimental_conditions: Salmonella enterica
Give bare numbers, in µg/mL.

The examples below pair each entry with its known result.
-- ask Return reported MIC; argument: CN(C)[C@@H]1C(O)=C(C(N)=O)C(=O)[C@@]2(O)C(O)=C3C(=O)c4c(O)cccc4[C@@](C)(O)[C@H]3C[C@@H]12 [TETRACYCLINE]
-- reply 0.25

-- ask Return reported MIC; argument: CCn1cc(C(=O)O)c(=O)c2cc(F)c(N3CCNCC3)cc21 [NORFLOXACIN]
-- reply 0.008

-- ask Return reported MIC; argument: O=C(O)c1cn(C2CC2)c2cc(N3CCNCC3)c(F)cc2c1=O [CIPROFLOXACIN]
-- reply 0.008

-- ask Return reported MIC; argument: CN(C)c1ccc2cc3ccc(N(C)C)cc3nc2c1 [ACRIDINE ORANGE]
-- reply 512

-- ask Return reported MIC; argument: CO[C@@H]1[C@@H](OC(N)=O)[C@@H](O)[C@H](Oc2ccc3c(O)c(NC(=O)c4ccc(O)c(CC=C(C)C)c4)c(=O)oc3c2C)OC1(C)C [NOVOBIOCIN]
-- reply 64

Hey, quick one: what's MIC for each of these?
1. CC[n+]1c(-c2ccccc2)c2cc(N)ccc2c2ccc(N)cc21.[Br-] [HOMIDIUM BROMIDE]
2. O=C(N[C@H](CO)[C@H](O)c1ccc([N+](=O)[O-])cc1)C(Cl)Cl [CHLORAMPHENICOL]
3. CN(C)c1ccc(C(=C2C=CC(=[N+](C)C)C=C2)c2ccc(N(C)C)cc2)cc1.[Cl-] [GENTIAN VIOLET]

-- reply
[8, 0.015, 1]

###

procedure_text: Antimicrobial activity against Salmonella serovar Typhimurium SL1344 expressing ramA::aph-pTRC hisA:ramA mutant by broth dilution method
Assay type: functional
experimental_conditions: Salmonella enterica
Please respond with reported MIC for every item in the list.
Give bare numbers, in µg/mL.

The examples below pair each entry with its known result.
-- ask Return reported MIC; argument: CC[n+]1c(-c2ccccc2)c2cc(N)ccc2c2ccc(N)cc21.[Br-] [HOMIDIUM BROMIDE]
-- reply 2050

-- ask Return reported MIC; argument: CN(C)c1ccc(C(=C2C=CC(=[N+](C)C)C=C2)c2ccc(N(C)C)cc2)cc1.[Cl-]
-- reply 2

-- ask Return reported MIC; argument: CO[C@@H]1[C@@H](OC(N)=O)[C@@H](O)[C@H](Oc2ccc3c(O)c(NC(=O)c4ccc(O)c(CC=C(C)C)c4)c(=O)oc3c2C)OC1(C)C
-- reply 512

-- ask Return reported MIC; argument: CCn1cc(C(=O)O)c(=O)c2cc(F)c(N3CCNCC3)cc21
-- reply 0.25

-- ask Return reported MIC; argument: O=C(N[C@H](CO)[C@H](O)c1ccc([N+](=O)[O-])cc1)C(Cl)Cl
-- reply 8

-- ask Return reported MIC; argument: Oc1cc(Cl)ccc1Oc1ccc(Cl)cc1Cl
-- reply 0.25

-- ask Return reported MIC; argument: CN(C)c1ccc2cc3ccc(N(C)C)cc3nc2c1
-- reply 256

-- ask Return reported MIC; argument: CN(C)CCCN1c2ccccc2Sc2ccc(Cl)cc21
-- reply 512

-- ask Return reported MIC; argument: O=C(O)c1cn(C2CC2)c2cc(N3CCNCC3)c(F)cc2c1=O
-- reply 0.03

-- ask Return reported MIC; argument: CN(C)[C@@H]1C(O)=C(C(N)=O)C(=O)[C@@]2(O)C(O)=C3C(=O)c4c(O)cccc4[C@@](C)(O)[C@H]3C[C@@H]12
-- reply 4

Next compound, please.
-- ask Return reported MIC; argument: CCn1cc(C(=O)O)c(=O)c2ccc(C)nc21
-- reply 16
